The measured values listed here are drawn from patent US20200283478A1.

molecular target: T1, PCSK9Δhelix (human, Chemically biotinylated in the phage ELISAs; the site is not given.); assay: phage spot ELISA
T1 construct: construct M1-Q692 with engineered TEV site, cleaved by TEV; also called His-PCSK9Δhelix; open groove PCSK9Δhelix
T1 sequence (prodomain, as listed by the source mutant limits assumed, chain 1 of 2): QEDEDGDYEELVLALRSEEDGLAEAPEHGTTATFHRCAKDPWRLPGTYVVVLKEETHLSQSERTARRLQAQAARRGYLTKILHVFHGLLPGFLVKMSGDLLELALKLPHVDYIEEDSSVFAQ
T1 sequence (chain, as listed by the source mutant limits assumed, chain 2 of 2): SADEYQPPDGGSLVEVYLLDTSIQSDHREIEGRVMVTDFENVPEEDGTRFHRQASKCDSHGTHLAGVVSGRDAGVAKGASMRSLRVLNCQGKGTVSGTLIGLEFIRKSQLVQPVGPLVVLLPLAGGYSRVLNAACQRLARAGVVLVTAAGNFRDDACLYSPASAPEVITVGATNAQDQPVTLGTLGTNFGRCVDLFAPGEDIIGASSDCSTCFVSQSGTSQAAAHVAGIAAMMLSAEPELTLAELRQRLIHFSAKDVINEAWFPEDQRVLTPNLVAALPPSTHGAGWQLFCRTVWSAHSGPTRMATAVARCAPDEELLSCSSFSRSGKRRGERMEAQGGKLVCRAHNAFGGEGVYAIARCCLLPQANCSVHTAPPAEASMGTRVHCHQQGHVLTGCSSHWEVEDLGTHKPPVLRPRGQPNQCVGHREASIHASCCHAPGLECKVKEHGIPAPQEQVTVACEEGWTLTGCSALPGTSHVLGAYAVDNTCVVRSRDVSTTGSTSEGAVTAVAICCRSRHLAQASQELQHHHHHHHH
Ends that are not written are not given here.
metric-name: s/n ratio
Enter a number only.

Please report the recorded s/n ratio for SGCFIPWNLQRIGLLC (not fully specified (C-terminus, bridges); cysteine pairing not given here) [SEQ ID NO 383] .
8.48

Please do the same for SGRCLNHLISGNMNSC [SEQ ID NO 387] as well.
20.7

Please do the same for SGACVKPCIAGNIIR [SEQ ID NO 388] as well.
18.2

Please do the same for SGCSDLWNLARIYPMC [SEQ ID NO 391] as well.
15.1

Please do the same for SGDLMPWNLVRIGLLR [SEQ ID NO 389] as well.
14.7

Please do the same for SGGACPWNLERIGLSC [SEQ ID NO 384] as well.
12.3

Please do the same for SGGSMPWNLERIFALH [SEQ ID NO 390] as well.
21.3
